Reference for the values: PubChem BioAssay (NCATS)

# Assay Overview: Quantitative highthroughput screen to assess conditional lethalithy of SEM cells grown in Human Plasma-Like Medium with dialyzed fetal bovine serum (HPLM+ds) (AID 1963882); note: nearly all actives have a fitted effect of over 35% in size
# Run Parameters: SEM B-ALL cells in HPLM+ds, CellTiter-Glo viability, 48 h; series mostly up to 45.8 µM
Results filed as inconclusive are left out. Activity calls are given as the source filed them. Calls come from the whole dose curve; as a rule, active = well fitted cell-killing curve with a large enough effect; inconclusive = small, poorly fitted or top-dose-only effect, or effect the other way; inactive = no such curve, though single readings can be large or run the other way.
Output constraint: value belongs to T (active), F (inactive)

Please indicate how the test categorized `Cc1ccc(-c2cc(C(F)(F)F)nn2-c2ccc(S(N)(=O)=O)cc2)cc1` .
F

Please indicate how the test categorized `CC(C)n1cnc2c(NCCCCCCNC(=O)OC(C)(C)C)nc(NCCO)nc21` .
F

Please indicate how the test categorized `CC(C)(C)C(=O)Oc1ccc(S(=O)(=O)Nc2ccccc2C(=O)NCC(=O)O)cc1` .
F

More entries:
Please indicate how the test categorized `Cc1ccc(NC(=O)c2cccc(N(C)C)c2)cc1NC(=O)c1ccc(O)cc1` .
F

Please indicate how the test categorized `CC[C@H](C)C(=O)O[C@H]1C[C@H](O)C=C2C=C[C@H](C)[C@H](CC[C@@H](O)C[C@@H](O)CC(=O)O)[C@H]21` .
F

Please indicate how the test categorized `CNC(=O)c1c(F)cccc1Nc1nc(Nc2cc3c(cc2OC)CCN3C(=O)CN(C)C)nc2[nH]ccc12` .
T

###

# Assay Overview: Viability qHTS for spleen associated tyrosine kinase inhibitor (SYKi) drug resistant MV4-11 cells (AID 1963824); note: nearly all actives have a fitted effect of over 35% in size; note: potency is the fitted concentration of half-maximal effect
# Run Parameters: SYKi-resistant MV4-11 viability, CellTiter-Glo, 72 h; series mostly up to 45 µM
# Description: Department of Medicine, Hematology/Oncology University Hospital Frankfurt, Germany. Trials have shown promising clinical activity of the selective SYK inhibitor entospletinib in patients with high expressing HOXA9/MEIS1 acute leukemias. […] 7; Detection; Luminescence; ViewLux plate reader (PerkinElmer). […] 1. Quantitative high-throughput screening (qHTS) of small molecule compounds was conducted on drug resistant SYKi MV4-11 cell line. […] 7. Luminescence was measured on a ViewLux plate reader (PerkinElmer).
Inconclusive results are not listed. Active and inactive are the calls of the source. Calls come from the whole dose curve; as a rule, active = well fitted cell-killing curve with a large enough effect; inconclusive = small, poorly fitted or top-dose-only effect, or effect the other way; inactive = no such curve, though single readings can be large or run the other way.
Readout Kind: Potency

See these solved cases before continuing.
For the compound shown here, `CC(C)C[C@@H](N)[C@H](O)C(=O)N[C@H](C(=O)N[C@H](C(=O)N[C@@H](CC(=O)O)C(=O)O)C(C)C)C(C)C` , give the reported Potency.
inactive

For the compound shown here, O=C1CC2(CCCC2)CC(=O)N1CCNCC1COc2ccccc2O1 (stereo not given) , give the reported Potency.
inactive

For the compound shown here, `Cc1onc(-c2ccccc2)c1C(=O)N1CCN(c2ccc([N+](=O)[O-])cc2Cl)CC1` , give the reported Potency.
13 µM (active)

For the compound shown here, CCC(C)/C=C(C)/C=C/C(=O)C1CCC(O)C(C)(O)C1=O (stereo not given) , give the reported Potency.
13 µM (active)

For the compound shown here, `O=C(O)CCC(=O)O` , give the reported Potency.
inactive

More entries:
For the compound shown here, `CC1(C)C=CN2C(=O)C3=CCCN3C(=O)[C@@H]2C[C@@]12Nc1ccccc1C2=O` , give the reported Potency.
inactive

For the compound shown here, `COc1cc([C@H]2OC[C@](O)(Cc3ccc(O[C@@H]4O[C@H](CO)[C@@H](O)[C@H](O)[C@H]4O)c(OC)c3)[C@@H]2CO)ccc1O` , give the reported Potency.
inactive

For the compound shown here, `COC(=O)C1=CO[C@@H](O[C@@H]2O[C@H](CO[C@@H]3O[C@H](COC(=O)/C=C/c4ccc(O)cc4)[C@@H](O)[C@H](O)[C@H]3O)[C@@H](O)[C@H](O)[C@H]2O)[C@@H]2C(CO)=CC[C@H]12` , give the reported Potency.
inactive

For the compound shown here, COc1ccc(OC2OC(CO[C@@H]3O[C@@H](C)[C@H](O)[C@@H](O)[C@H]3O)C(O)C(O)C2O)cc1OC (stereo not given in full) , give the reported Potency.
inactive

For the compound shown here, CN1c2ccccc2C(=O)N2CCC3c4ccccc4NC3C21 (stereo not given) , give the reported Potency.
1.8 µM (active)

For the compound shown here, CN(C)CC(c1ccc(O)cc1)C1(O)CCCCC1 (stereo not given) , give the reported Potency.
inactive

For the compound shown here, C=CC(C)(/C=C/c1ccc(O)cc1)CCC=C(C)C (stereo not given) , give the reported Potency.
23.1 µM (active)

For the compound shown here, `COc1cc(O)c2c(=O)c(O)c(-c3ccc(O)c(O)c3)oc2c1` , give the reported Potency.
8.2 µM (active)

For the compound shown here, `C[C@]1(C(=O)Nc2ccc(F)nc2)CCCN1c1nc(Nc2cc(C3CC3)[nH]n2)c2cccn2n1` , give the reported Potency.
1.64 µM (active)

For the compound shown here, C=C1CCC2C(C)(C(=O)O)CCCC2(C)C1CC/C(=C\CO)CO (stereo not given) , give the reported Potency.
inactive
